Provide the recorded inhibition for the entries that follow.
molecular target: Tyrosine-protein kinase Fyn (Homo sapiens); details: at 1 µM
Description: GSK_PKIS: FYN mean inhibition at 1 uM [Nanosyn]

Item Cn1c(-c2nonc2N)nc2cnccc21 has what recorded inhibition?
2.28%

Any idea what inhibition was measured for CS(=O)(=O)Nc1ccc(-c2ccc3c(NC(=O)C4CC4)n[nH]c3c2)cc1 ?
2.5%

# input compound: COc1ccc(Nc2ncc(-c3ccccc3)o2)cc1OC ; wanted: its inhibition
26.1%

Query: inhibition; subject: O=C(Nc1n[nH]c2nnc(-c3cccnc3)cc12)C1CC1
4.86%

---

Assign inhibition to each entry below.
biological target: Interleukin-1 receptor-associated kinase 4 (Homo sapiens); conditions: at 0.1 µM;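 further: reported figure is the mean inhibition of IRAK4 activity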
Give just the numeric value; % need not be written.

What does the data say about its inhibition? Entry: CC(C)c1ccc(-c2cc(-c3c[nH]nc3-c3ccccn3)ccn2)cc1
1.27

Looking for the measured inhibition of Fc1cccc(COc2ccc(Nc3ncncc3C#Cc3ccccc3)cc2Cl)c1 , can you help?
0.71

Consider the compound CS(=O)(=O)Nc1ccc(-c2cc(-c3ccccc3)cc(C(N)=O)c2N)cc1 and give its measured inhibition.
0.55

What does the record list as inhibition for CC1=C(C(=O)Nc2ccc3[nH]nc(C)c3c2)C(c2ccc(C(F)(F)F)cc2)CC(=O)N1 (centres undefined) ?
-3.01

Which value of inhibition has been reported for OCCCNc1nccc(-c2c(-c3ccc(F)cc3)nn3cc(C(F)(F)F)ccc23)n1 in the records?
-1.58

inhibition lookup needed for NS(=O)(=O)c1ccc(N/N=C2\C(=O)Nc3ccc(C(=O)NCc4ccncc4)cc32)cc1 , thanks.
-2.46

May I ask what inhibition has been recorded for CN1CCC(n2cnc(-c3ccc(F)cc3)c2-c2ccnc(NCCO)n2)CC1 ?
-1.44

Query: inhibition; subject: CS(=O)(=O)CCNCc1ccc(-c2ccc3ncnc(Nc4ccc(OCc5ccccc5)cc4)c3c2)o1
1.54

Report inhibition for Cc1c2ccc(N(C)c3ccnc(Nc4cccc(S(N)(=O)=O)c4)n3)cc2nn1C please.
4.14

Returns the measured inhibition for the input compound. Input: CN(c1ccc(NC(=O)NCCN2CCOCC2)cc1)c1ccnc(Nc2ccc(CS(C)(=O)=O)cc2)n1
-5.94

# query: inhibition of entry COc1ccc(-c2nn3ncccc3c2-c2ccnc(Nc3ccc(F)c(F)c3)n2)cc1
-0.54

Requested read-out: inhibition. Entry: FC(F)(F)CNc1nccc(-c2cnn3ncccc23)n1
0.77

Name the recorded inhibition for O=C(O[C@H]1CN[C@H](C#Cc2cc3ncnc(Nc4ccc5c(cnn5Cc5ccccc5)c4)c3s2)C1)N1CCOCC1 .
-1.41

Given the entry N#Cc1cccc(Nc2ncc(-c3ccccc3)o2)c1 , report its measured inhibition.
2.82

Reported inhibition, compound COc1cccc(Nc2nccc(-c3cnn4ncccc34)n2)c1 : ____
0.48

Value lookup for inhibition; key = COC(=O)Nc1nc2cc(Oc3ccc(NC(=O)Nc4ccccc4)cc3)ccc2[nH]1
2.38

Tell me the measured inhibition of Cc1cc(O)cc(C)c1/C=C/c1cncc(C(=O)OC(C)(C)C)c1 , please.
3.06

Using the record for Fc1ccc(Nc2nccc(-c3c(-c4ccc(C(F)(F)F)cc4)nn4ncccc34)n2)cc1F , report its inhibition.
-4.78

Can you look up the measured inhibition of COc1c(C(N)=O)cc(-c2ccc(Cl)cc2)cc1-c1ccc(S(N)(=O)=O)cc1 for me?
1.96

---

What inhibition was measured for each of the following?
target: Mitogen-activated protein kinase 3 (Homo sapiens) (UniProt P27361); conditions: at 0.1 µM
Sequence (P27361 whole entry): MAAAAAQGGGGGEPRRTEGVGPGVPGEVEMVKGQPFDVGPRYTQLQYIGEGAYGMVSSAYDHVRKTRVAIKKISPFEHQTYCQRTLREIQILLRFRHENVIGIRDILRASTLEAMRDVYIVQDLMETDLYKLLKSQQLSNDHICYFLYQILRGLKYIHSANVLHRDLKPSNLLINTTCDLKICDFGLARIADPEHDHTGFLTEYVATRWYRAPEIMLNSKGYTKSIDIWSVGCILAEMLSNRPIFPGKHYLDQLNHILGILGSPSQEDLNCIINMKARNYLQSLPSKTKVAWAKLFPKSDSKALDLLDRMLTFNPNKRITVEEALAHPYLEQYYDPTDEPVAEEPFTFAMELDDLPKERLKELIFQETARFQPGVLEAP
Just the number please, in %, no unit attached.

Under Mitogen-activated protein kinase 3 (Homo sapiens) (UniProt P27361): inhibition value of NS(=O)(=O)c1cccc(N/C=C2\C(=O)Nc3ccccc32)c1 ?
1.72

Kindly state the measured inhibition obtained for CS(=O)(=O)CCNCc1ccoc1-c1ccc2ncnc(Nc3ccc(OCc4ccccc4)cc3)c2c1 with Mitogen-activated protein kinase 3 (Homo sapiens) (UniProt P27361).
0.52

Given the entry COC(=O)Nc1nc2ccc(Oc3ccc(NC(=O)Nc4cc(C(F)(F)F)ccc4F)cc3)cc2s1 , what inhibition was observed with Mitogen-activated protein kinase 3 (Homo sapiens) (UniProt P27361)?
0.14

Item c1ccc(-c2n[nH]cc2-c2ccnc(-c3ccc(OCCn4ccnc4)cc3)c2)nc1 with Mitogen-activated protein kinase 3 (Homo sapiens) (UniProt P27361) - inhibition?
0.3

Request - read-out inhibition | tested on Mitogen-activated protein kinase 3 (Homo sapiens) (UniProt P27361) | compound O=C(O[C@H]1CN[C@H](C#Cc2cc3ncnc(Nc4ccc5c(ccn5Cc5cc(F)ccc5F)c4)c3s2)C1)N1CCOCC1
4.98

Give inhibition (Mitogen-activated protein kinase 3 (Homo sapiens) (UniProt P27361)) of the following compound: CC1(C)CC(n2cnc(-c3ccc(F)cc3)c2-c2ccnc(N)n2)CC(C)(C)N1
0.44

Query for Mitogen-activated protein kinase 3 (Homo sapiens) (UniProt P27361): what inhibition does the record show for Cc1ccc(-c2cc3c(NC(=O)C4CC4)ncnc3o2)cc1 ?
3

Give inhibition (Mitogen-activated protein kinase 3 (Homo sapiens) (UniProt P27361)) of the following compound: CNC(=O)c1sc(-n2cnc3cc(OC)c(OC)cc32)cc1OCc1ccccc1C(F)(F)F
3.11

Query inhibition on Mitogen-activated protein kinase 3 (Homo sapiens) (UniProt P27361) for N#Cc1ccc2c(-c3ccnc(NC4CC4)n3)c(-c3ccc(F)cc3)nn2c1
0.07

Entry Cn1c(-c2nonc2N)nc2cnccc21 , system Mitogen-activated protein kinase 3 (Homo sapiens) (UniProt P27361): what inhibition was measured?
0.55

Mitogen-activated protein kinase 3 (Homo sapiens) (UniProt P27361) / inhibition / CS(=O)(=O)CCNCc1ccc(-c2ccc3ncnc(Nc4ccc(OCc5cccc(C(F)(F)F)c5)cc4)c3c2)o1 : value?
4.22

Quick check: inhibition on Mitogen-activated protein kinase 3 (Homo sapiens) (UniProt P27361), item CCS(=O)(=O)c1ccc(OC)c(Nc2ncc(-c3cccc(F)c3)o2)c1 ?
4.68

API: value(readout=inhibition, system=Mitogen-activated protein kinase 3 (Homo sapiens) (UniProt P27361)) for record CN(c1ccc(NC(=O)NCCN2CCOCC2)cc1)c1ccnc(Nc2ccc(CS(C)(=O)=O)cc2)n1
4.06

Please provide the recorded inhibition for COc1cc(Nc2ncc(-c3ccccc3)o2)cc(OC)c1 , tested on Mitogen-activated protein kinase 3 (Homo sapiens) (UniProt P27361).
5.39

Can you look up inhibition on Mitogen-activated protein kinase 3 (Homo sapiens) (UniProt P27361) for Cc1cc(O)cc(C)c1/C=C/c1cncc(C(N)=O)c1 ?
0.31

Give recorded inhibition with Mitogen-activated protein kinase 3 (Homo sapiens) (UniProt P27361) for the following compound: COc1ccc2ncn(-c3cc(O[C@H](C)c4ccccc4C(F)(F)F)c(C(N)=O)s3)c2c1
-0.86

Record COc1ccc(-c2nn3ncccc3c2-c2ccnc(Nc3ccc(F)c(F)c3)n2)cc1 : what is its inhibition with Mitogen-activated protein kinase 3 (Homo sapiens) (UniProt P27361)?
3.11

Entry NS(=O)(=O)c1ccc(N/N=C2\C(=O)Nc3cccc(CCc4ccncc4)c32)cc1 , system Mitogen-activated protein kinase 3 (Homo sapiens) (UniProt P27361): what inhibition was measured?
-0.55

Can you look up inhibition on Mitogen-activated protein kinase 3 (Homo sapiens) (UniProt P27361) for FC(F)(F)CNc1nccc(-c2cnn3ncccc23)n1 ?
1.95

Value wanted: inhibition (Mitogen-activated protein kinase 3 (Homo sapiens) (UniProt P27361)) of entry O=C(O[C@H]1CN[C@H](C#Cc2cc3ncnc(Nc4ccc5c(cnn5Cc5ccccc5)c4)c3s2)C1)N1CCOCC1
-0.77

Find inhibition (Mitogen-activated protein kinase 3 (Homo sapiens) (UniProt P27361)) for the entry Cc1cc(O)cc(C)c1/C=C/c1cncc(C(=O)OC(C)(C)C)c1
1.22

Recall the recorded inhibition for COc1cccc(Nc2nccc(-c3cnn4ncccc34)n2)c1 with Mitogen-activated protein kinase 3 (Homo sapiens) (UniProt P27361) and state it.
1.68

What reported inhibition corresponds to OCCCNc1nccc(-c2c(-c3ccc(F)cc3)nn3cc(C(F)(F)F)ccc23)n1 on Mitogen-activated protein kinase 3 (Homo sapiens) (UniProt P27361)?
1.68

Test system Mitogen-activated protein kinase 3 (Homo sapiens) (UniProt P27361); read-out inhibition; what value for CS(=O)(=O)Nc1ccc(-c2cc(-c3ccccc3)cc(C(N)=O)c2N)cc1 ?
2.82

Fill in the recorded inhibition for this compound, with Mitogen-activated protein kinase 3 (Homo sapiens) (UniProt P27361) as test system: COc1cccc(-n2ncc3c(N/N=C/c4ccc(C(=O)NCCN(C)C)cc4)ncnc32)c1
3.11

What reported inhibition corresponds to CCN1CCC(C(=O)Nc2n[nH]c3nnc(-c4cccc(F)c4F)cc23)CC1 on Mitogen-activated protein kinase 3 (Homo sapiens) (UniProt P27361)?
-2.77

Kindly state the measured inhibition obtained for CCn1c(-c2nonc2N)nc2cncc(C(=O)NCCNC)c21 with Mitogen-activated protein kinase 3 (Homo sapiens) (UniProt P27361).
6.22

I'm curious: which inhibition was measured for CC1=C(C(=O)Nc2ccc3[nH]ncc3c2)C(c2ccc(F)cc2)N=C(c2ccc(C(F)(F)F)nc2)N1 (stereo not drawn) tested on Mitogen-activated protein kinase 3 (Homo sapiens) (UniProt P27361)?;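 further: each value is a mean inhibition figure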
1.81
